// values below are reported MIC
system: Staphylococcus aureus; assay: Antimicrobial activity against Staphylococcus aureus ATCC 25923 assessed as inhibition of visible growth measured after 20 to 24 hrs incubation by CLSI method; assay type: functional; conditions: time 20-24 hrs
metric name: MIC

1. O=C(O)c1ccc(-n2cc(CNc3ccc(Br)c(C(F)(F)F)c3)c(-c3ccc(F)cc3)n2)cc1    2 µg/mL
2. O=C(O)c1ccc(-n2cc(CNc3cc(C(F)(F)F)cc(C(F)(F)F)c3)c(-c3ccc(F)c(F)c3)n2)cc1    1 µg/mL
3. O=C(O)c1ccc(-n2cc(CNc3ccc(Br)c(Cl)c3)c(-c3ccc(F)cc3)n2)cc1    1 µg/mL
4. O=C(O)c1ccc(-n2cc(CNc3ccc(Cl)c(C(F)(F)F)c3)c(-c3ccc(F)cc3)n2)cc1    2 µg/mL
5. O=C(O)c1ccc(-n2cc(CNc3cc(Cl)cc(C(F)(F)F)c3)c(-c3cccc(F)c3)n2)cc1    2 µg/mL
6. O=C(O)c1ccc(-n2cc(CNc3cc(Cl)c(F)c(Cl)c3)c(-c3ccc(F)c(F)c3)n2)cc1    1 µg/mL
7. O=C(O)c1ccc(-n2cc(CNc3ccc(Cl)cc3)c(-c3ccc(F)c(F)c3)n2)cc1    > 32 µg/mL
8. O=C(O)c1ccc(-n2cc(CNc3cc(Cl)cc(C(F)(F)F)c3)c(-c3ccc(F)cc3)n2)cc1    4 µg/mL
9. O=C(O)c1ccc(-n2cc(CNc3cc(Cl)c(F)cc3F)c(-c3ccc(F)c(F)c3)n2)cc1    > 32 µg/mL
10. O=C(O)c1ccc(-n2cc(CNc3ccc(Oc4ccccc4)cc3)c(-c3ccc(F)cc3)n2)cc1    2 µg/mL
11. O=C(O)c1ccc(-n2cc(CNc3cc(Cl)cc(Cl)c3)c(-c3ccc(F)c(F)c3)n2)cc1    1 µg/mL
12. O=C(O)c1ccc(-n2cc(CNc3ccc(F)cc3)c(-c3ccc(F)c(F)c3)n2)cc1    > 32 µg/mL
13. O=C(O)c1ccc(-n2cc(CNc3ccc(F)c(F)c3)c(-c3ccc(F)cc3)n2)cc1    > 32 µg/mL
14. O=C(O)c1ccc(-n2cc(CNc3ccc(Br)cc3)c(-c3cccc(F)c3)n2)cc1    4 µg/mL
15. O=C(O)c1ccc(-n2cc(CNc3cc(F)c(F)c(F)c3)c(-c3ccc(F)cc3)n2)cc1    32 µg/mL
16. O=C(O)c1ccc(-n2cc(CNc3ccc(Cl)c(Cl)c3)c(-c3ccc(F)cc3)n2)cc1    2 µg/mL
17. O=C(O)c1ccc(-n2cc(CNc3cc(C(F)(F)F)cc(C(F)(F)F)c3)c(-c3ccc(F)cc3)n2)cc1    1 µg/mL
18. O=C(O)c1ccc(-n2cc(CNc3cc(F)c(F)c(F)c3)c(-c3cccc(F)c3)n2)cc1    4 µg/mL
19. Cc1ccc(NCc2cn(-c3ccc(C(=O)O)cc3)nc2-c2ccc(F)cc2)cc1Cl    32 µg/mL

###

system: Bacillus subtilis; test: Antimicrobial activity against antibiotic-resistant Bacillus subtilis ATCC 6623 assessed as inhibition of visible growth measured after 20 to 24 hrs incubation by CLSI method; type: functional; conditions: time 20-24 hrs
// values below are reported MIC
metric name: MIC (µg/mL)

1. O=C(O)c1ccc(-n2cc(CNc3ccc(Oc4ccccc4)cc3)c(-c3ccc(F)c(F)c3)n2)cc1    1
2. O=C(O)c1ccc(-n2cc(CNc3ccc(F)c(Cl)c3)c(-c3ccc(F)cc3)n2)cc1    2
3. O=C(O)c1ccc(-n2cc(CNc3ccc(F)cc3)c(-c3ccc(F)cc3)n2)cc1    16
4. O=C(O)c1ccc(-n2cc(CNc3ccc(Br)c(Cl)c3)c(-c3ccc(F)cc3)n2)cc1    0.5
5. Cc1cc(NCc2cn(-c3ccc(C(=O)O)cc3)nc2-c2ccc(F)cc2)ccc1Br    1
6. COc1ccc(NCc2cn(-c3ccc(C(=O)O)cc3)nc2-c2ccc(F)cc2)cc1C(F)(F)F    8
7. O=C(O)c1ccc(-n2cc(CNc3ccc(Cl)cc3)c(-c3ccc(F)cc3)n2)cc1    4
8. O=C(O)c1ccc(-n2cc(CNc3cc(Cl)c(F)c(Cl)c3)c(-c3ccc(F)cc3)n2)cc1    1
9. O=C(O)c1ccc(-n2cc(CNc3ccc(F)c(Cl)c3)c(-c3cccc(F)c3)n2)cc1    4

###

test system: Enterococcus faecium; assay: Antimicrobial activity against antibiotic-resistant Enterococcus faecium ATCC 700221 assessed as inhibition of visible growth measured after 20 to 24 hrs incubation by CLSI method; assay type: functional; conditions: time 20-24 hrs
// values below are reported MIC
metric name: MIC (µg/mL)

1. O=C(O)c1ccc(-n2cc(CNc3ccc(F)c(Cl)c3F)c(-c3ccc(F)c(F)c3)n2)cc1    4
2. COc1ccc(NCc2cn(-c3ccc(C(=O)O)cc3)nc2-c2ccc(F)cc2)cc1C(F)(F)F    32
3. O=C(O)c1ccc(-n2cc(CNc3ccc(Br)c(Cl)c3)c(-c3ccc(F)cc3)n2)cc1    4
4. O=C(O)c1ccc(-n2cc(CNc3cc(Cl)cc(C(F)(F)F)c3)c(-c3ccc(F)cc3)n2)cc1    4
5. O=C(O)c1ccc(-n2cc(CNc3cccc(Br)c3)c(-c3ccc(F)cc3)n2)cc1    16
6. O=C(O)c1ccc(-n2cc(CNc3cc(Cl)cc(C(F)(F)F)c3)c(-c3cccc(F)c3)n2)cc1    2
7. O=C(O)c1ccc(-n2cc(CNc3ccc(F)c(Cl)c3)c(-c3ccc(F)c(F)c3)n2)cc1    8
8. O=C(O)c1ccc(-n2cc(CNc3cccc(Br)c3)c(-c3cccc(F)c3)n2)cc1    16
9. CC(C)(C)c1ccc(NCc2cn(-c3ccc(C(=O)O)cc3)nc2-c2ccc(F)cc2)cc1    4

###

// values below are reported MIC
tested on: Enterococcus faecalis; assay: Antimicrobial activity against antibiotic-resistant Enterococcus faecalis ATCC 51299 assessed as inhibition of visible growth measured after 20 to 24 hrs incubation by CLSI method; format: functional; conditions: time 20-24 hrs
metric name: MIC (µg/mL)

1. O=C(O)c1ccc(-n2cc(CNc3cc(F)c(F)c(F)c3)c(-c3cccc(F)c3)n2)cc1    32
2. O=C(O)c1ccc(-n2cc(CNc3cc(Cl)c(F)c(Cl)c3)c(-c3cccc(F)c3)n2)cc1    4
3. O=C(O)c1ccc(-n2cc(CNc3cc(C(F)(F)F)cc(C(F)(F)F)c3)c(-c3ccc(F)c(F)c3)n2)cc1    2
4. O=C(O)c1ccc(-n2cc(CNc3ccc(F)c(Cl)c3)c(-c3ccc(F)c(F)c3)n2)cc1    32
5. O=C(O)c1ccc(-n2cc(CNc3cc(C(F)(F)F)cc(C(F)(F)F)c3)c(-c3ccc(F)cc3)n2)cc1    4
6. O=C(O)c1ccc(-n2cc(CNc3cc(Cl)ccc3Cl)c(-c3cccc(F)c3)n2)cc1    32
7. O=C(O)c1ccc(-n2cc(CNc3ccc(Cl)c(Cl)c3)c(-c3cccc(F)c3)n2)cc1    8

###

system: Bacillus subtilis; test: Antimicrobial activity against antibiotic-resistant Bacillus subtilis ATCC 6623 assessed as inhibition of visible growth measured after 20 to 24 hrs incubation by CLSI method; format: functional; settings: time 20-24 hrs
Cut-off 2 µg/mL on MIC: below means label 1, at or above means label 0.

1. O=C(O)c1ccc(-n2cc(CNc3ccc(Br)c(C(F)(F)F)c3)c(-c3ccc(F)c(F)c3)n2)cc1    label 1
2. O=C(O)c1ccc(-n2cc(CNc3ccccc3)c(-c3ccc(F)cc3)n2)cc1    label 0
3. O=C(O)c1ccc(-n2cc(CNc3cccc(C(F)(F)F)c3)c(-c3ccc(F)c(F)c3)n2)cc1    label 1
4. O=C(O)c1ccc(-n2cc(CNc3ccc(Cl)c(C(F)(F)F)c3)c(-c3ccc(F)cc3)n2)cc1    label 1
5. O=C(O)c1ccc(-n2cc(CNc3cc(Cl)cc(Cl)c3)c(-c3ccc(F)c(F)c3)n2)cc1    label 1
6. O=C(O)c1ccc(-n2cc(CNc3ccc(F)cc3)c(-c3ccc(F)c(F)c3)n2)cc1    label 0
7. O=C(O)c1ccc(-n2cc(CNc3ccc(F)c(F)c3)c(-c3cccc(F)c3)n2)cc1    label 0
8. CN[C@H](CC(C)C)C(=O)N[C@H]1C(=O)N[C@@H](CC(N)=O)C(=O)N[C@H]2C(=O)N[C@H]3C(=O)N[C@H](C(=O)N[C@H](C(=O)O)c4cc(O)cc(O)c4-c4cc3ccc4O)[C@H](O)c3ccc(c(Cl)c3)Oc3cc2cc(c3O[C@@H]2O[C@H](CO)[C@@H](O)[C@H](O)[C@H]2O[C@H]2C[C@](C)(N)[C@H](O)[C@H](C)O2)Oc2ccc(cc2Cl)[C@H]1O    label 1
9. O=C(O)c1ccc(-n2cc(CNc3cc(Cl)cc(C(F)(F)F)c3)c(-c3cccc(F)c3)n2)cc1    label 1
10. O=C(O)c1ccc(-n2cc(CNc3ccc(Br)cc3)c(-c3ccc(F)cc3)n2)cc1    label 0
11. O=C(O)c1ccc(-n2cc(CNc3cccc(Cl)c3)c(-c3ccc(F)cc3)n2)cc1    label 0
12. O=C(O)c1ccc(-n2cc(CNc3ccc(Br)c(C(F)(F)F)c3)c(-c3ccc(F)cc3)n2)cc1    label 1
13. O=C(O)c1ccc(-n2cc(CNc3cccc(Br)c3)c(-c3ccc(F)cc3)n2)cc1    label 0
14. O=C(O)c1ccc(-n2cc(CNc3ccc(Cl)cc3)c(-c3ccc(F)c(F)c3)n2)cc1    label 0

Origin of measurements: ChEMBL document CHEMBL5365500
